Listed here are compounds together with their documented inhibition.
experimental_details: inhibitors of TNFa-induced NFkB p65 translocation, primary screen, imaging, HUVEC, MLSMR starter and 10KST1 sets (AID 438);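 also: compound added about 3h40 before a 20 min TNFalpha stimulation; signal is the nuclear over cytoplasmic p65 intensity ratio per well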
stated_conditions: HUVEC TNFa-induced p65 nuclear translocation; at 2 µM, hits give high values, 0% TNFa-plus-vehicle, 100% no-TNFa wells

{"compound": "Cc1[nH]c2ccccc2c(=O)c1CN1CCCCC1", "unit_symbol": "%", "inhibition": 2.1}
{"compound": "COc1ccc(C(CNC(=O)c2cc(C)oc2C)N2CCOCC2)cc1 (configuration not stated)", "unit_symbol": "%", "inhibition": -0.8}
{"compound": "O=C(O)CCc1ccc(-c2ccc(F)cc2)n1CC(=O)O", "unit_symbol": "%", "inhibition": 7.9}
{"compound": "Cc1cnn(Cc2ccccc2)c1N", "unit_symbol": "%", "inhibition": 2.3}
{"compound": "CC1(C)CC(=O)C2=C(C1)OC(N)=C(C#N)C2C1CC=CCC1 (configuration not stated)", "unit_symbol": "%", "inhibition": 2.4}
{"compound": "CN(CC(=O)N1CCCc2c1c(=O)oc1ccc(O)cc21)Cc1ccccc1", "unit_symbol": "%", "inhibition": 5.7}
{"compound": "COc1ccc(NC(=O)CN2CCN(CC(=O)Nc3cc(OC)cc(OC)c3)CC2)cc1", "unit_symbol": "%", "inhibition": -3.6}
{"compound": "CCC(=O)Nc1ccc(NC(=O)c2cccc(OC)c2)nc1", "unit_symbol": "%", "inhibition": -7.5}
{"compound": "CCOc1ccc(NC(=O)CSc2nc3cccnc3n2CC)cc1", "unit_symbol": "%", "inhibition": -15.8}
{"compound": "CCN(CC)CCOC(=O)c1c(C)oc2ccc(O)cc12", "unit_symbol": "%", "inhibition": 11.9}
{"compound": "COc1cc(OC)cc(OCC(O)Cn2cnc(-c3ccccc3)c2)c1 (configuration not stated)", "unit_symbol": "%", "inhibition": 6}
{"compound": "COc1ccc(C(=O)N2CCN(C3CCC(c4ccccc4)CC3)CC2)cc1OC (configuration not stated)", "unit_symbol": "%", "inhibition": -1.3}

Origin of measurements: PubChem BioAssay
